System: E. coli 1346
Experiment: Antibacterial activity of the products per se, serial dilution method in liquid medium (Test E)
Assay type: cell-based
Conditions: Table 4; test E, product per se
Structures can show the parent of a compound that is named as a salt.
measurement_type: MIC E. coli 1346 (E) (µg/mL)

>>> measured_result("Nc1nnc(SCC2=C(C(=O)O)N3C(=O)[C@H]4NC[C@@H](O2)[C@H]43)s1 [Example 29(c), sodium salt]")
2
>>> measured_result("Cn1nnnc1SCC1=C(C(=O)O)N2C(=O)[C@@H]3[C@H]2[C@H](C1)CN3C(=O)NCc1ccc(O)cc1 [18(h), sodium salt]")
16
>>> measured_result("Cc1nnc(SCC2=C(C(=O)O)N3C(=O)[C@@H]4[C@H]3[C@H](C2)CN4C(=O)C(F)(F)F)s1 [65(b), sodium salt]")
2
>>> measured_result("Cc1nnc(SC2=C(C(=O)O)N3C(=O)[C@@H]4[C@H]3[C@H](C2)CN4C(=O)C(F)(F)F)s1 [Example 3(ad), sodium salt]")
16
>>> measured_result("Cn1nnnc1SCC1=C(C(=O)O)N2C(=O)[C@@H]3[C@H]2[C@H](C1)CN3C=O [Example 19(k), sodium salt]")
0.5
>>> measured_result("O=C(O)C1=C(CSc2ncccn2)C[C@@H]2CN(C(=O)C(F)(F)F)[C@@H]3C(=O)N1[C@H]23 [72(b), sodium salt]")
4
>>> measured_result("Cn1nnnc1SCC1=C(C(=O)O)N2C(=O)[C@@H]3[C@H]2[C@H](C1)CN3C(=O)CC#N [Example 19(d), sodium salt]")
2
>>> measured_result("NC(=O)OCC1=C(C(=O)O)N2C(=O)[C@@H]3[C@H]2[C@H](C1)CN3C(=O)Cc1cccs1 [58(b), sodium salt]")
16
>>> measured_result("CC(=O)N1C[C@H]2CC(CSc3nc(-c4cccnc4)cs3)=C(C(=O)O)N3C(=O)[C@@H]1[C@@H]23 [67(a), sodium salt]")
0.5
>>> measured_result("O=C(NC1CC1)OCC1=C(C(=O)O)N2C(=O)[C@H]3NC[C@@H](C1)[C@H]32 [Example 93]")
8
>>> measured_result("NC(=O)Cn1nnnc1SCC1=C(C(=O)O)N2C(=O)[C@@H]3[C@H]2[C@@H](CN3C(=O)C(F)(F)F)O1 [Example 39, sodium salt]")
8
>>> measured_result("O=C(O)C1=C(CSc2nc(-c3cccnc3)cs2)C[C@@H]2CN[C@@H]3C(=O)N1[C@H]23 [Example 66]")
4

* * *

Tested on: E. coli 1346
Assay: Antibacterial activity of the products per se, serial dilution method in liquid medium (Test E)
Type: cell-based
Conditions: Table 4; test E, product per se
Counter-ions that a name gives are not always drawn.
Listing: MIC E. coli 1346 (E) of selected compounds
measurement_type: MIC E. coli 1346 (E)

>>> measured_result("CC(=O)N1C[C@H]2CC(CNS(C)(=O)=O)=C(C(=O)O)N3C(=O)[C@@H]1[C@@H]23 [88(a), sodium salt]")
"16 µg/mL"
>>> measured_result("Cn1nnnc1SCC1=C(C(=O)O)N2C(=O)[C@@H]3[C@H]2[C@@H](CN3C(=O)Nc2ccc(C(N)=O)cc2)O1 [31(i), sodium salt]")
"8 µg/mL"
>>> measured_result("NC(=O)OCC1=C(C(=O)O)N2C(=O)[C@@H]3[C@H]2[C@H](C1)CN3C(=O)NCc1cccs1 [27(f), sodium salt]")
"≤ 0,25 μg/ml"
>>> measured_result("Cc1cc(SCC2=C(C(=O)O)N3C(=O)[C@H]4NC[C@@H](O2)[C@H]43)n2nc(C(N)=O)nc2n1")
"4 µg/mL"
>>> measured_result("CNC(=O)Cn1nnnc1SCC1=C(C(=O)O)N2C(=O)[C@H]3NC[C@@H](O1)[C@H]32")
"32 µg/mL"
>>> measured_result("O=C(O)C1=C(CSc2ccncc2)O[C@@H]2CN(C(=O)Nc3ccc(O)cc3)[C@@H]3C(=O)N1[C@@H]32 [31(d), sodium salt]")
"> 32 µg/mL"
>>> measured_result("CC(=O)N1C[C@H]2CC(SCC(N)=O)=C(C(=O)O)N3C(=O)[C@@H]1[C@@H]23 [3(ak), sodium salt]")
"16 µg/mL"
>>> measured_result("Cc1nnc(SCC2=C(C(=O)O)N3C(=O)[C@@H]4[C@H]3[C@H](C2)CN4C(=O)CSCC(N)=O)s1 [65(g), sodium salt]")
"8 µg/mL"
>>> measured_result("CC(=O)N1C[C@H]2CC(COC(=O)NCc3ccncc3)=C(C(=O)O)N3C(=O)[C@@H]1[C@@H]23 [100(a), sodium salt]")
"1 µg/mL"
>>> measured_result("CNC(=O)Cn1nnnc1SCC1=C(C(=O)O)N2C(=O)[C@@H]3[C@H]2[C@@H](CN3C(C)=O)O1 [32(f), sodium salt]")
"4 µg/mL"
>>> measured_result("NC(=O)OCC1=C(C(=O)O)N2C(=O)[C@@H]3[C@H]2[C@H](C1)CN3C(=O)NCc1ccccc1 [Example 27(c), sodium salt]")
"> 32 µg/mL"
>>> measured_result("CO/N=C(\\C(=O)N1C[C@H]2CC(COC(N)=O)=C(C(=O)O)N3C(=O)[C@@H]1[C@@H]23)c1csc(N)n1")
"> 32 µg/mL"
>>> measured_result("Cc1nnc(SCC2=C(C(=O)O)N3C(=O)[C@@H]4[C@H]3[C@@H](CN4C(=O)Nc3ccc(O)cc3)O2)s1 [Example 31(a), sodium salt]")
"8 µg/mL"
>>> measured_result("O=C([O-])Cc1ccc[n+](CC2=C(C(=O)O)N3C(=O)[C@@H]4[C@H]3[C@H](C2)CN4C(=O)Nc2ccc(O)cc2)c1")
"> 32 µg/mL"

* * *

Test system: E. coli 1346
Assay: Antibacterial activity of the products per se, serial dilution method in liquid medium (Test E)
Type: cell-based
Settings: Table 4; test E, product per se
Where a name gives a salt, the structure may show the parent alone.
measurement_type: MIC E. coli 1346 (E) (µg/mL)

>>> measured_result("NC(=O)OCC1=C(C(=O)O)N2C(=O)[C@@H]3[C@H]2[C@H](C1)CN3C(=O)CSc1nnc(N)s1 [58(f), sodium salt]")
8
>>> measured_result("Cn1nnnc1SCC1=C(C(=O)O)N2C(=O)[C@@H]3[C@H]2[C@H](C1)CN3C(=O)C(F)(F)F [Example 19(c), sodium salt]")
2
>>> measured_result("O=C(NCc1ccncc1)OCC1=C(C(=O)O)N2C(=O)[C@H]3NC[C@@H](C1)[C@H]32 [Example 99]")
4

* * *

Test system: E. coli 1346
Experiment: Antibacterial activity of the products per se, serial dilution method in liquid medium (Test E)
Format: cell-based
Conditions: Table 4; test E, product per se
Structures can show the parent of a compound that is named as a salt.
Please respond with yes (1) when measured MIC E. coli 1346 (E) is strictly beneath 4 µg/mL, and with no (0) in all other cases.

>>> label_class("CS(=O)(=O)N1C[C@H]2CC(COC(N)=O)=C(C(=O)O)N3C(=O)[C@@H]1[C@@H]23 [58(c), sodium salt]")
"yes (1)"
>>> label_class("CC(=O)N1C[C@H]2CC(CSc3cc[n+](CC(=O)[O-])cc3)=C(C(=O)O)N3C(=O)[C@@H]1[C@@H]23")
"no (0)"
>>> label_class("O=C(NC1CC1)OCC1=C(C(=O)O)N2C(=O)[C@@H]3[C@H]2[C@H](C1)CN3C(=O)C(F)(F)F [94(b), sodium salt]")
"yes (1)"
>>> label_class("CC(=O)N1C[C@H]2CC(Sc3nnnn3C)=C(C(=O)O)N3C(=O)[C@@H]1[C@@H]23 [Example 3(aa), sodium salt]")
"no (0)"
>>> label_class("CC(=O)N1C[C@H]2CC(CSc3nc[nH]n3)=C(C(=O)O)N3C(=O)[C@@H]1[C@@H]23 [76(a), sodium salt]")
"yes (1)"
>>> label_class("CN1CCN(C(=O)OCC2=C(C(=O)O)N3C(=O)[C@H]4NC[C@@H](C2)[C@H]43)CC1")
"yes (1)"
>>> label_class("Cc1nnc(SCC2=C(C(=O)O)N3C(=O)[C@@H]4[C@H]3[C@H](C2)CN4C(=O)CSc2nnc(N)s2)s1 [65(f), sodium salt]")
"yes (1)"
>>> label_class("Nc1nnc(SCC2=C(C(=O)O)N3C(=O)[C@H]4NC[C@@H](S2)[C@H]43)s1 [40(e)]")
"no (0)"
>>> label_class("Cn1nc[n+](C)c1CSC1=C(C(=O)[O-])N2C(=O)[C@@H]3[C@H]2[C@H](C1)CN3C(=O)Nc1ccc(O)cc1")
"no (0)"
>>> label_class("NC(=O)OCC1=C(C(=O)O)N2C(=O)[C@@H]3[C@H]2[C@H](C1)CN3C(=O)NCCc1cccs1 [27(g), sodium salt]")
"no (0)"
>>> label_class("NC(=O)OCC1=C(C(=O)O)N2C(=O)[C@@H]3[C@H]2[C@H](C1)CN3C(=O)NC1CC1 [27(d), sodium salt]")
"no (0)"
>>> label_class("CC(=O)Nc1nnc(SCC2=C(C(=O)O)N3C(=O)[C@@H]4[C@H]3[C@H](C2)CN4C(C)=O)s1 [19(j), sodium salt]")
"yes (1)"
>>> label_class("Cn1nnnc1SCC1=C(C(=O)O)N2C(=O)[C@H]3NC[C@@H](O1)[C@H]32 [Example 29(e), sodium salt]")
"yes (1)"
>>> label_class("CCN1C[C@H]2CC(COC(N)=O)=C(C(=O)O)N3C(=O)[C@@H]1[C@@H]23 [59(c), sodium salt]")
"no (0)"
